Test: amyloid nucleation score (Sup35N fusion, yeast selection) (log enrichment); library NNK3; higher = more nucleation; inactive = no reads after selection;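 note: zero at mode of non-aggregating sequences after 7 days selection at 30°C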
Result Type: amyloid nucleation score

Consider the reported amyloid nucleation score for these substances:
SSARRKNLRYEGVLRTEARV :: inactive
NIARRTIKLTPFFSIFCVYS :: 3.2
TLFGFCAREIVRMRNDHIQV :: inactive
KRVKWNCRGLDDSMLFFWVV :: inactive
FNRLDTNTTSGPRTGTTLEM :: inactive
FYSLIMHLKRLSYVA :: inactive

Item FGRIGSYWTMVQ has what recorded amyloid nucleation score?
inactive

Item RCLSNN has what recorded amyloid nucleation score?
inactive

Item WIYRLWQGDIVPRVMTAHTA has what recorded amyloid nucleation score?
-0.735
